Test system: ε-poly-L-lysine biosynthetic enzyme
measurement_protocol: adenylation activity of L-lysine and other amino acids by ATP-PPi exchange reaction
Format: biochemical, Streptomyces albulus strain IFO14147
assay_context: nucleotide in place of ATP
measure: Nucleotide specificity: activation of substrate amino acids

compound | measurement
O=c1ccn([C@@H]2O[C@H](COP(=O)(O)OP(=O)(O)OP(=O)(O)O)[C@@H](O)[C@H]2O)c(=O)[nH]1 [UTP] | not activated
Nc1nc2c(ncn2[C@@H]2O[C@H](COP(=O)(O)OP(=O)(O)OP(=O)(O)O)[C@@H](O)[C@H]2O)c(=O)[nH]1 [GTP] | not activated
Nc1ccn([C@@H]2O[C@H](COP(=O)(O)OP(=O)(O)OP(=O)(O)O)[C@@H](O)[C@H]2O)c(=O)n1 [CTP] | not activated

----------
Tested on: ε-poly-L-lysine biosynthetic enzyme
measurement_protocol: adenylation activity of L-lysine and other amino acids by ATP-PPi exchange reaction
Format: biochemical, Streptomyces albulus strain IFO14147
assay_context: 1 mM amino acid; "None" = was not adenylated
measure: Substrate specificity: adenylated by the enzyme or not

molecule | measurement
CSCC[C@H](N)C(=O)O | None
NCC(O)CCC(N)C(=O)O (racemic) [DL-5-hydroxylysine] | adenylated
NCC(=O)O | None
N=C(N)NCCC[C@H](N)C(=O)O | None
N[C@@H](Cc1ccccc1)C(=O)O | None
N[C@@H](Cc1ccc(O)cc1)C(=O)O | None
NCCSC[C@H](N)C(=O)O | adenylated
N[C@@H](Cc1c[nH]c2ccccc12)C(=O)O | None
NC(=O)C[C@H](N)C(=O)O | None
CC(C)[C@H](N)C(=O)O | None
C[C@H](N)C(=O)O | None
N[C@@H](CO)C(=O)O | None
N[C@@H](Cc1c[nH]cn1)C(=O)O | None
CC(C)C[C@H](N)C(=O)O | None
N[C@@H](CS)C(=O)O | None
N[C@@H](CCC(=O)O)C(=O)O | None
C[C@@H](O)[C@H](N)C(=O)O | None
O=C(O)[C@@H]1CCCN1 | None
N[C@@H](CC(=O)O)C(=O)O | None
NCCCC[C@@H](N)C(=O)O | adenylated
NC(=O)CC[C@H](N)C(=O)O | None
CC[C@H](C)[C@H](N)C(=O)O | None
NCCOC[C@H](N)C(=O)O | adenylated
